# SUBJECT_OF_TEST: T1, RSV postfusion F (postF), subtype A (respiratory syncytial virus subtype A, UniProt P03420 26-513)
# T1 construct: also called Postfusion subtype A; F deltaFP
# ASSAY_EXPLANATION: BLI

BINDER	binding result
ADI-24832 (antibody, V domains shown, full-length IgG) VH: EVQLVESGGGLVKPGGSLRLSCAASGFTFSSYSMNWVRQAPGKGLEWVSSISASSSYIFYSDLVKGRFTISRDNAKNSLYLQMNSLRAEDTAVYYCARAGYYYGSGSYYVDYWGQGTLVTVSS VL: QSVLTQPPSVSGAPGQRVAISCTGSSSNIGAGYDVHWYQQLPGTAPKLLIYGNSNRPSGVPDRFSGSKSGTSASLAITGLQAEDEADYYCQSYGSSLSGWVFGGGTKLTVL	no binding
ADI-24826 (antibody, V domains shown, full-length IgG; also called Ab 388) VH: EVQLVESGGGLVKPGGSLRLSCAASGFTFSSYSMNWVRQAPGKGLEWVSSISSSSSYIYYADSVKGRFTISRDNAKNSLYLQMNSLRAEDTAVYYCARDRGYGSGALDYWGQGTLVTVSS VL: QPVLTQPASVSGSPGQSITISCTGTSSDVGGYNYVSWYQQHPGKAPKLMIYDVSNRPSGVSNRFSGSKSGNTASLTISGLQAEDEADYYCSSYTSSSTVVFGGGTKLTVL	no binding
ADI-19425 (antibody, V domains shown, full-length IgG; also called Ab 140) VH: EVQLVESGGGLVKPGGSLRLSCAASGFTFSSYSMNWVRQAPGKGLEWVSSISSSSSYIYYADSVKGRFTISRDNAKNSLYLQMNSLRAEDTAVYYCARLGYCSGGSCHFDYWGQGTLVTVSS VL: QPVLTQPPSVSGAPGQRVTISCTGSSSNIGAGYDVHWYQQLPGTAPKLLIYGNSNRPSGVPDRFSGSKSGTSASLAITGLQAEDEADYYCQSYDSSLSGFYVFGTGTKLTVL	no binding
